Target: full-length yPolη (Saccharomyces cerevisiae, UniProt Q04049)
Construct: gene RAD30; full-length, residues 1-632, expressed and purified from yeast
Sequence (Q04049 whole entry, the tested form may be a part): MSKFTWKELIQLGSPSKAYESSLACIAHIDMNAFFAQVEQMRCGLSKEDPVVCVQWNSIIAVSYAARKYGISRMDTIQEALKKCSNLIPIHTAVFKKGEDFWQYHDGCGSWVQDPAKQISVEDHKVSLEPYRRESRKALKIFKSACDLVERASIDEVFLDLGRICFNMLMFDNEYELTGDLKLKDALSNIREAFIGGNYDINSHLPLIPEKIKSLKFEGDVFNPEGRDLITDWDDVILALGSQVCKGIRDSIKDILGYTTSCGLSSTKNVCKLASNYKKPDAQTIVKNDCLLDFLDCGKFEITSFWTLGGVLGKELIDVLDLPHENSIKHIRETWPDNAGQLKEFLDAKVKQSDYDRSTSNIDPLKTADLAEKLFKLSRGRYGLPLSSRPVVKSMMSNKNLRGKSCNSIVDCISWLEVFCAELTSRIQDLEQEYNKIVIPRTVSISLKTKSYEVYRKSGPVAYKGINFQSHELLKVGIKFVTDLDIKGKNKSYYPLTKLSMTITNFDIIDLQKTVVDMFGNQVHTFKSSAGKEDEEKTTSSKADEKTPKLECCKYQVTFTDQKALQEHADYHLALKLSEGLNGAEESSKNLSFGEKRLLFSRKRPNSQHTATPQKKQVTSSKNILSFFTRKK
Experiment: pre-steady-state single-turnover nucleotide incorporation, rapid chemical quench
Format: biochemical
Details: correct dNTP opposite template dA (D-1 21/41-mer DNA); 5 mM MgCl2, pH 7.5, 23°C
From the text: pre-steady-state single-turnover nucleotide incorporation, rapid chemical quench on full-length yPolη
Measure name: pKd
# pKd is unitless: minus log10 of the molar concentration; print number only

Any idea what its pKd is? The compound is Cc1cn([C@H]2C[C@H](O)[C@@H](COP(=O)(O)OP(=O)(O)OP(=O)(O)O)O2)c(=O)[nH]c1=O [dTTP]
4.40

---

biological target: full-length yPolη (Saccharomyces cerevisiae); construct: gene RAD30; full-length, residues 1-632, expressed and purified from yeast; assay: pre-steady-state single-turnover nucleotide incorporation, rapid chemical quench; format: biochemical; details: mismatched dNTP opposite template dA (D-1 21/41-mer DNA); 5 mM MgCl2, pH 7.5, 23°C
Measure name: pKd
# pKd: negative log10 of molar concentration; output just the value

Name the reported pKd value associated with the molecule "Nc1nc2c(ncn2[C@H]2C[C@H](O)[C@@H](COP(=O)(O)OP(=O)(O)OP(=O)(O)O)O2)c(=O)[nH]1"
3.77

Reported pKd, molecule "Nc1ncnc2c1ncn2[C@H]1C[C@H](O)[C@@H](COP(=O)(O)OP(=O)(O)OP(=O)(O)O)O1" : ____
3.81

Look up pKd: "Nc1ccn([C@H]2C[C@H](O)[C@@H](COP(=O)(O)OP(=O)(O)OP(=O)(O)O)O2)c(=O)n1"
4.15

---

target: truncated yPolη (Saccharomyces cerevisiae); construct: gene RAD30; catalytic core (polymerase domain) 1-513, lacks C-terminal residues 514-632; N-terminal tag MGSSH6SSGLVPRGSH; assay: pre-steady-state single-turnover nucleotide incorporation, rapid chemical quench; assay type: biochemical; settings: correct dNTP opposite template dT (D-7 21/41-mer DNA); 5 mM MgCl2, pH 7.5, 23°C
Sequence (Q04049 1-513): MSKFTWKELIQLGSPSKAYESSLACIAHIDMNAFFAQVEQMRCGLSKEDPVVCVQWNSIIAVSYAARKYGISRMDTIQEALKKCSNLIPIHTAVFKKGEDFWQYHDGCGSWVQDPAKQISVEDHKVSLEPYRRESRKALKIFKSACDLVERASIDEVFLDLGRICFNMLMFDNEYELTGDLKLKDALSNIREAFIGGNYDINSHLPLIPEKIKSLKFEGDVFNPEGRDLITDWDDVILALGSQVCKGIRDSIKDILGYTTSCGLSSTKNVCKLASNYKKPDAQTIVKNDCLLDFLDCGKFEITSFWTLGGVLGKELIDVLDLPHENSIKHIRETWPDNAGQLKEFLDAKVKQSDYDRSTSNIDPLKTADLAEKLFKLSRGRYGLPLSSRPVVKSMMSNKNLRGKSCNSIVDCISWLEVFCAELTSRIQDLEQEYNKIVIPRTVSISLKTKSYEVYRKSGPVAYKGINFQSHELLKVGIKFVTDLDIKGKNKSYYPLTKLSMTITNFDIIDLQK
Measure name: pKd
The meaning of pKd here: minus log10 of the concentration in molar units.

What reported pKd corresponds to "Nc1ncnc2c1ncn2[C@H]1C[C@H](O)[C@@H](COP(=O)(O)OP(=O)(O)OP(=O)(O)O)O1" on truncated yPolη (Saccharomyces cerevisiae)?
4.77
